test system: 743489-274-T-PDC complex spheroid viability; experiment: Anticancer human tumor 743489-274-T-PDC patient-derived renal cell carcinoma cell line growth inhibition; conditions: second compound 3.16 µM; first compound 1 µM; stronger effect = lower value;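 also: spheroids exposed to compounds for 7 days before readout; 100% = DMSO vehicle control wells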
I'd be grateful if you could share measured viability, T/C for these entries.
One number for each entry, in %.

Example entries begin here.
Nc1ncn(C2CC(O)C(CO)O2)c(=O)n1 (centres undefined) + NC1CC1c1ccc(-c2cccc(O)c2)cc1; 86.8
CC1(C)CCC(CN2CCN(c3ccc(C(=O)NS(=O)(=O)c4ccc(NCC5CCOCC5)c([N+](=O)[O-])c4)c(Oc4cnc5[nH]ccc5c4)c3)CC2)=C(c2ccc(Cl)cc2)C1 + NC1CC1c1ccc(-c2cccc(O)c2)cc1; 109
CC1COCCN1c1cc(C2(S(C)(=N)=O)CC2)nc(-c2ccnc3[nH]ccc23)n1 (centres undefined) + NC1CCC(NC2CC2c2ccccc2)CC1; 106

## Task I'd like to know its viability, T/C. The molecule in question is CC(C)c1c(-c2ccccc2)nc2c(C#N)c[nH]n2c1=O + NC1CCC(NC2CC2c2ccccc2)CC1
## Result 119
